- Test system: glycogen synthase kinase-3 (GSK3A per assay name; protocol says GSK3B)
- protocol.notes: GSK3 binders on small-molecule microarrays, primary screen, biochemical, small-molecule microarray, 635 nm fluorescence, GSK3A (AID 1103); further: the record names both GSK3A and GSK3B
- reported.conditions: small-molecule microarray binding, fluorescence 635 nm; higher = more signal
Please go through the items and note down their composite z-score.
Numbers only.

Examples with their reported composite z-score follow.
C=C(CCCC)/C(=C/C[C@@H](OC(=O)c1ccncc1)c1cccc(OCCO)c1)c1cc(C(=O)OC)ccc1OC | 0.764
CC(C)[C@H]1NC(=O)[C@@]23C(=O)N[C@@H](Cc4ccccc4)C2[C@H](C)[C@@]2(C)O[C@H]2C3/C=C/C/C=C\CNC(=O)[C@H](C)NC1=O (stereo not given in full) | -1.37
C=C(COC)/C(=C/C[C@@H](OC(=O)c1ccncc1)c1ccc(OCCO)cc1)c1cc(C(=O)OC)ccc1OC | 1.25

Value sought for every listed compound: composite z-score.
1. Cc1ccc(S(=O)(=O)N2[C@@H](c3ccccc3)C(C(=O)O)=CC[C@H]2c2ccccc2)cc1
2. C#CCCCON=C1C[C@@H](O)[C@@H](O)[C@@H]2[C@@H]3C(=O)N(Cc4ccc5c(c4)OCO5)C(=O)[C@@H]3CC[C@H]12
3. O=C1c2ccccc2[C@](Cc2ccccc2I)(C(=O)O)[C@H](c2ccc(CO)cc2)N1C1CCCCC1

-- reply
1: -0.0481; 2: 0.253; 3: 1.28

// for each compound in input: emit composite z-score
1. COCCOC(=O)N1C(=O)[C@@]2(c3cc(C#CC4=CCCCC4)ccc31)[C@H](C(=O)NC[C@H](O)c1ccccc1)[C@H]1C(=O)O[C@H](c3ccccc3)[C@H](c3ccccc3)N1[C@@H]2c1ccc(OCCO)cc1
2. O=C1NC(=O)C2C1C=CC(C(O)C=Cc1ccc([N+](=O)[O-])cc1)N2Nc1ccccn1 (stereo not given)
3. Cc1ccc(N2C(=O)c3ccccc3[C@](C)(C(=O)NCC(C)C)[C@@H]2c2ccc(CO)cc2)nc1
4. C=CC[C@]1(C(N)=O)N=C(c2ccc(OCCCO)cc2)O[C@H]1c1ccccc1CN=[N+]=[N-]
5. COC(=O)[C@@]1(Cc2ccc(OC)cc2)[C@H]2c3cc(C(=O)N(C)C)n(Cc4ccc(C)c(F)c4F)c3C[C@H]2CN1C(=O)c1ccccc1
6. CC(=O)NCCCC[C@@H]1NC(=O)[C@H]2C[C@@H](C(=O)NCCCCCCN(C)C)[C@@H](c3cccc(OCCO)c3)N2C1=O

-- reply
1. 1.28
2. -0.0039
3. -0.856
4. 0.518
5. -0.109
6. 1.36

Consider the following items and state reported composite z-score for each.
1. CO[C@@H]1COC(=O)[C@H](COCc2ccccc2)NC(=O)CC=C[C@@H](C)[C@H](OC)COC(=O)[C@H](COCc2ccccc2)NC(=O)CC=C[C@H]1C
2. COCCOC(=O)N1C(=O)[C@@]2(c3cc(C#CCC(C(=O)OC)C(=O)OC)ccc31)[C@H](C(=O)N1CCN(c3ncccn3)CC1)[C@H]1C(=O)O[C@H](c3ccccc3)[C@H](c3ccccc3)N1[C@@H]2c1ccc(O)cc1

-- reply
1: 0.376; 2: 0.845

-- ask Could you tell me which composite z-score is on file for `C=C(C(=O)CC[C@H](OC(=O)c1ccccc1-c1ccccc1C(=O)O)c1ccc(CO)o1)C(C)C` ?
-- reply 0.914
